The origin of these recorded values is patent US9926297B2.

tgt: UniProt:P08172
Sequence (P08172 whole entry): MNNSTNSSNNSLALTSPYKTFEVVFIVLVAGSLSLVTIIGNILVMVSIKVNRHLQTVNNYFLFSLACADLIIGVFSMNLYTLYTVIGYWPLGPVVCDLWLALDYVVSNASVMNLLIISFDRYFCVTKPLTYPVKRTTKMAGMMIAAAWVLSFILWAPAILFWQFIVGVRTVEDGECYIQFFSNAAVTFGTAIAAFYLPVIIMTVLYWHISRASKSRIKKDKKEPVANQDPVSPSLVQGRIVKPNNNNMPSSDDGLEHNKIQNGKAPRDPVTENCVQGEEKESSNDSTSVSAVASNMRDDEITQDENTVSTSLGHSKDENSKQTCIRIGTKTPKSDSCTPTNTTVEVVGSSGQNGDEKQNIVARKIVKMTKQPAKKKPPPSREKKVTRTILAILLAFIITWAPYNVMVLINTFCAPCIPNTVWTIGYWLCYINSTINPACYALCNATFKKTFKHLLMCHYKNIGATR
assaySummary: Alphascreen Surefire phospho-ERK1/2 functional assay, M2
cond: CHO, read-out: % Emax cf. ACh, M2, CHO cells stably expressing human M2; relative to ACh
parameter: Emax (%)
Write down the numeric answer in % and omit the unit.

Please review the entries below; each comes with its answer.
- compound: "CCOC(=O)N1CCC2(CC(N3CCC(N4CCC[C@@H]4C(F)(F)F)CC3)C2)C1 (single isomer, unassigned) [2-104 Isomer 2]"
  measurement: 8
- compound: "CCOC(=O)N1CCC2(CC(N3CCC(C4c5ccccc5CN4C(=O)NC)CC3)C2)C1 (single isomer, unassigned) [2-76 Isomer 1]"
  measurement: 10
- compound: "CCOC(=O)N1CCC2(CC(N3CCC(c4nc(C(F)(F)F)cn4C)CC3)C2)C1 (single isomer, unassigned) [1-15 Isomer 2]"
  measurement: 4
- compound: "CCOC(=O)N1CCC2(CC(N3CCC(n4ccc(C)n4)CC3)C2)C1 (single isomer, unassigned) [1-44 Isomer 2]"
  measurement: 80

// switching to the query compound
Entry CCOC(=O)N1CCC2(CC(N3CCC([C@@H]4CCCN4C(=O)NC4CCC4)CC3)C2)C1 (single isomer, unassigned) [2-30 Isomer 2] ; Emax = 52
